Attribution: ChEMBL document CHEMBL1201862

Measured IC50 values are reported for all entries that follow.
- study-system: Calpain-2 catalytic subunit (Sus scrofa)
- Sequence (P43367 whole entry): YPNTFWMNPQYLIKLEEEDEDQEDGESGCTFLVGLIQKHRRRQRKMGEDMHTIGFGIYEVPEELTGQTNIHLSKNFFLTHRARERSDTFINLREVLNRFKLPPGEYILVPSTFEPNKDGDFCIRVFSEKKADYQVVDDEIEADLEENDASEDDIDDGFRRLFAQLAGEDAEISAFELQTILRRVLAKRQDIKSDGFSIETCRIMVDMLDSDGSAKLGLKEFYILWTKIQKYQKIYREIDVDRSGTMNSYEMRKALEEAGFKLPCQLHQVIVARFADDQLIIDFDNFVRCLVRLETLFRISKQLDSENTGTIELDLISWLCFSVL
- experiment-summary: pig calpain II inhibitor potency, dose response, biochemical, fluorogenic peptide substrate (AID 1420)
- Assay type: functional

Worked examples, 3 compounds total:
O=C(N/N=C/c1ccc(Cl)c([N+](=O)[O-])c1)C1CC1 : 34.8 µM (not active)
CC(C)=C1C2CCC1C1C(=O)N(c3nc(-c4ccccc4)c(C)s3)C(=O)C21 (centres undefined) : 8.52 µM (not active)
O=C1/C(=C/C=C/c2ccco2)SC(=S)N1NS(=O)(=O)c1ccccc1 : 8.28 µM (not active)

Asked: Need IC50 of "COc1cc(/C=C2/SC(=S)NC2=O)ccc1OS(=O)(=O)c1ccc(C)cc1" , thanks.
Given back: 13.4 µM (not active)

Asked: Need IC50 of "CC(=O)N(C)c1ccc(NC(=O)Nc2ccc(C)cc2)cc1" , thanks.
Given back: 0.673 µM (not active)

Asked: Need IC50 of "O=C(O)c1cccc(N/N=C/C2=C(Cl)c3cc(Cl)ccc3SC2)c1" , thanks.
Given back: 2.38 µM (not active)

====

- study-system: Peroxisome proliferator-activated receptor gamma/Nuclear receptor coactivator 1 (Homo sapiens, UniProt P37231)
- Sequence (P37231 whole entry): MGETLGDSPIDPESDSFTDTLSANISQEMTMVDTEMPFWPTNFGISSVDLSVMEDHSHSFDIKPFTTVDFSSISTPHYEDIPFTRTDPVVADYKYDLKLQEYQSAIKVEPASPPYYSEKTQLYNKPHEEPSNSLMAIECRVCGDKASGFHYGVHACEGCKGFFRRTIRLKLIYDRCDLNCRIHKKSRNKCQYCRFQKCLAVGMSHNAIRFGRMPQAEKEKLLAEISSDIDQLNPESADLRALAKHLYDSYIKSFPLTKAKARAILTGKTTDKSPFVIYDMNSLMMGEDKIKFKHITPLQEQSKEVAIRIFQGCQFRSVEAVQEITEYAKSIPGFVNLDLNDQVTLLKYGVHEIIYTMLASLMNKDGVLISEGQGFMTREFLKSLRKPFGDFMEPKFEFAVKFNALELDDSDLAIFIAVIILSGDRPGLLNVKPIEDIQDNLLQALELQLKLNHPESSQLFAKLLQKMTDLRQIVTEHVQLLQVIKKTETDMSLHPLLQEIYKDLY
- Sequence (Q15788 whole entry, further chain): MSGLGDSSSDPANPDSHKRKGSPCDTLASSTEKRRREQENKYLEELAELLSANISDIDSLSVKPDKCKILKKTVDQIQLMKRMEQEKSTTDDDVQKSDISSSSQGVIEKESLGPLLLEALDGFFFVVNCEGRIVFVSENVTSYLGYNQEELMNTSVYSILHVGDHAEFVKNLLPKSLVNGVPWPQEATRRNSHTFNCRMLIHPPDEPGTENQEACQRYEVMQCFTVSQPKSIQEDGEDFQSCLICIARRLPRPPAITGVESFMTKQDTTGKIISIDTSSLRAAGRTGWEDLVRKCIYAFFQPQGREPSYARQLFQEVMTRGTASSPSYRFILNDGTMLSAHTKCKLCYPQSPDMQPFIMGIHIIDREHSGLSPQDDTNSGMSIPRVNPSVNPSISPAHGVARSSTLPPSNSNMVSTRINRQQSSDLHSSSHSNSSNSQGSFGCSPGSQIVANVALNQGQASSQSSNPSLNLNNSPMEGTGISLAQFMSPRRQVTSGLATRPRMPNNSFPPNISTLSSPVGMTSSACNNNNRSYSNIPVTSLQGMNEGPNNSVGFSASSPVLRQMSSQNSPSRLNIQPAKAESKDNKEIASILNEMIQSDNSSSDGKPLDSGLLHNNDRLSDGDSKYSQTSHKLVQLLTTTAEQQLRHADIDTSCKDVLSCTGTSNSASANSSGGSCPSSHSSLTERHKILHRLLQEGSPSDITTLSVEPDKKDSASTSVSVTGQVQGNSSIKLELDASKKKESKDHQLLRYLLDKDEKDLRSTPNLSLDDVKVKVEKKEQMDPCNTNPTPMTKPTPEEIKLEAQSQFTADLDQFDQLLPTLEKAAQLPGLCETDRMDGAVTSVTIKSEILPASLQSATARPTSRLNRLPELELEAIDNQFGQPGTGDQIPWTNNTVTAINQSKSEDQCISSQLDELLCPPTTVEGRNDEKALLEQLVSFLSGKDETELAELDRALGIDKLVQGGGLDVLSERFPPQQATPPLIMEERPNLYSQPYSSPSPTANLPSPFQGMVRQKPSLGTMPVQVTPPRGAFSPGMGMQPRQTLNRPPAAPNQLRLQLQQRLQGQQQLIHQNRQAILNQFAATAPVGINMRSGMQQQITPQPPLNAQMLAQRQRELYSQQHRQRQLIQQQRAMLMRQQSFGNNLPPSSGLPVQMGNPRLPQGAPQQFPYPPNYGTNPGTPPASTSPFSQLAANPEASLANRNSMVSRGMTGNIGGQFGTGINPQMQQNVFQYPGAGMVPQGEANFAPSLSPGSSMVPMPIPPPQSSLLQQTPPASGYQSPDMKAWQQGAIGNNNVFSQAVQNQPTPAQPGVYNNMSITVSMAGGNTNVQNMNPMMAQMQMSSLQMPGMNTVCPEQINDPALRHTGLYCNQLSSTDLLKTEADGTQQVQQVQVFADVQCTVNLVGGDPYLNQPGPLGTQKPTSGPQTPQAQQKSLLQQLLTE
- experiment-summary: TR-FRET dose response biochemical High Throughput Screening assay for agonists of the steroid receptor coactivator 1 (SRC-1) recruitment by the peroxisome proliferator-activated receptor gamma (PPAR gamma): non-selective agonists. [Related pubchem assays (depositor defined):AID1300, AID1808, AID504735, AID631]
- Format: protein assay
Active and inactive are the calls of the source.
Mark one answer only. Choices: active, inactive

COc1ccc(Br)cc1-c1nc(CCl)cs1 : active

Asked: What did the test return for CC(Sc1nc(N2CCCCC2)c2c(c1C#N)CCCC2)C(=O)O (centres undefined) ?
Given back: inactive

Asked: What did the test return for "Sc1nnc(-c2cccc(Br)c2)o1" ?
Given back: active

Asked: What did the test return for COC(=O)c1sc(N2C(=O)C(O)=C(C(=O)c3ccc(C)o3)C2c2ccc(F)cc2)nc1C (centres undefined) ?
Given back: inactive

====

Measured AC50 values are reported for all entries that follow.
- study-system: Cytochrome P450 1A2 (Homo sapiens);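 further: PubChem cytochrome P450 panel assay, CYP1A2 panel member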
- Sequence (P05177 whole entry): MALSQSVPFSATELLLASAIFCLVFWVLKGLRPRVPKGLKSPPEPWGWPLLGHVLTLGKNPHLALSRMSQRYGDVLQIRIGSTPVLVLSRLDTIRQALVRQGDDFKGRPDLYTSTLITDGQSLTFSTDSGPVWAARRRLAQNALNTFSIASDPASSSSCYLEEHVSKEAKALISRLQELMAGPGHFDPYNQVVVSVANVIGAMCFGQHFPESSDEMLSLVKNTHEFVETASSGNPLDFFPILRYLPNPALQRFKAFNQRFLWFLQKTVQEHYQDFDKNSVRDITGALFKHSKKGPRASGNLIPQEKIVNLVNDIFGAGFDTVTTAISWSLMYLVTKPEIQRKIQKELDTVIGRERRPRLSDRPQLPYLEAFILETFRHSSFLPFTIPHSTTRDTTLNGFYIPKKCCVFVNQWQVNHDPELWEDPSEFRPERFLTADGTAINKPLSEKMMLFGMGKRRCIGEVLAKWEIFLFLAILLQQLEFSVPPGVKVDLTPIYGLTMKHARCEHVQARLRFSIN

Worked examples, 7 compounds total:
CN1CCC(n2[nH]c(-c3ccccc3)c(Cc3ccccc3)c2=O)CC1 : 1.58 µM (inconclusive)
NS(=O)(=O)c1cc2c(cc1Cl)N[C@H](Cc1ccccc1)NS2(=O)=O : 3.16 µM (inconclusive)
N#Cc1c(SCC(N)=O)nsc1SCc1ccccc1Cl : 4.47 µM (inconclusive)
COC(=O)c1ccccc1Oc1c(F)c(F)nc(N2CCOCC2)c1F : 28.2 µM (inconclusive)
CN(CCO)c1nc(N)c2c(N)nc3c(c2c1C#N)CC(=O)N3C1CCCC1 : 2.82 µM (inconclusive)
Cc1ccc(C2(c3ccc(C)c(O)c3C)CCN(C)CC2)c(C)c1O : 5.01 µM (inconclusive)
CCN(CC)C(=O)C1=C(C)N=C(S)NC1c1cn(-c2ccccc2)nc1-c1ccc(Cl)cc1 (stereo not drawn) : 28.2 µM (inconclusive)

Shift focus to the following entry.
Asked: Lab request: please report AC50 under test system Cytochrome P450 1A2 (Homo sapiens) for "CN1CCN(c2ncc3nc(-c4cccs4)c(=O)n(CCC#N)c3n2)CC1"
Given back: 15.8 µM (inconclusive)

====

- study-system: Large T antigen (Simian virus 40);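 further: Confirmatory-stage PubChem screen for compounds that inhibit SV40 T antigen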
- Sequence (P03070 whole entry): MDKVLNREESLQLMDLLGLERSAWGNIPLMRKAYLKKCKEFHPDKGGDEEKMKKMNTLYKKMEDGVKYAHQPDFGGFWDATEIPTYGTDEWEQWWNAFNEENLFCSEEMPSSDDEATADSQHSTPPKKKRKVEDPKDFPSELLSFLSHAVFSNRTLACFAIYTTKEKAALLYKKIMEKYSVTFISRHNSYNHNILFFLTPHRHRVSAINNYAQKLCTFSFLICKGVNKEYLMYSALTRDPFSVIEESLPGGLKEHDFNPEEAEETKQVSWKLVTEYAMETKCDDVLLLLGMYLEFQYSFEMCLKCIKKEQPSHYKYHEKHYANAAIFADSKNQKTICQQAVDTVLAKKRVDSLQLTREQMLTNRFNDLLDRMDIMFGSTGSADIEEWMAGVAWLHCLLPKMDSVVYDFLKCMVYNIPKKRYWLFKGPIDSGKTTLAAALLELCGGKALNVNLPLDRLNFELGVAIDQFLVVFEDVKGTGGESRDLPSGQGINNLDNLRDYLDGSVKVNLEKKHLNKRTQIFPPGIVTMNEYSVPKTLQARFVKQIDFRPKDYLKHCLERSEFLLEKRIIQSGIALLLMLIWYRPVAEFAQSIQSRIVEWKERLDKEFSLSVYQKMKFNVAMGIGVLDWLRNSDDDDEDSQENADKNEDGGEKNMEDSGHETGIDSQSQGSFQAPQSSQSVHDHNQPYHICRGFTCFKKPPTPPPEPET
- Type: functional, Betapolyomavirus macacae
Activity calls are given as the source filed them.
measured-property: IC50

CCOc1cc(/C=N/n2cnnc2)ccc1O : 13.6 µM (active)

Asked: Need IC50 of "CN(C)c1ccc(NC(=O)CN2CCC(C(=O)c3ccc(F)cc3)CC2)cc1" , thanks.
Given back: 10.4 µM (active)

Asked: Need IC50 of "COc1cc2c(ccc3cc(OC)c(OC)c(O)c32)cc1O" , thanks.
Given back: 9.72 µM (active)

Asked: Need IC50 of "Oc1ccc(/C=N/N=C/c2ccc(O)c(O)c2)cc1O" , thanks.
Given back: 1.15 µM (active)

====

Measured AC50 values are reported for all entries that follow.
- study-system: Cytochrome P450 2D6 (Homo sapiens, UniProt P10635);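 further: CYP2D6 member of a cytochrome P450 panel assay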
- Sequence (P10635 whole entry): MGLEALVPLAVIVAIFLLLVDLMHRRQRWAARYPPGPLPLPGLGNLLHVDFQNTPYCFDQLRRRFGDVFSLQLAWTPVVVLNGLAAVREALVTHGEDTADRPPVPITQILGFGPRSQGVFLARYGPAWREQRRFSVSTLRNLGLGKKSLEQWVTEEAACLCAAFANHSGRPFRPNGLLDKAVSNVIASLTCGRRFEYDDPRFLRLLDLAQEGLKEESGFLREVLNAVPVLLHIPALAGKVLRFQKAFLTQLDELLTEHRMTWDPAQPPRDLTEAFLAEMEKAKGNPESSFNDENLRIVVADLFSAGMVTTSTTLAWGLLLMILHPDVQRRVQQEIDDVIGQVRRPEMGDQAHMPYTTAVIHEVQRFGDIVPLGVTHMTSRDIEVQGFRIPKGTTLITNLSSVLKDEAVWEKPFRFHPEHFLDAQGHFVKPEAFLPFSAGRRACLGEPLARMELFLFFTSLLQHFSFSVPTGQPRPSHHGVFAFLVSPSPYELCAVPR

Worked examples, 4 molecules total:
COC(=O)[C@@H]1c2cc3c(c(O)c2[C@@H](O)C[C@]1(C)O)C(=O)c1c(O)cc2c(c1C3=O)O[C@H]1O[C@@]2(C)[C@@H](O)[C@H](N(C)C)[C@H]1O : 5.01 µM (inconclusive)
C/C(=N\NC(=O)CC1N=C(Cc2ccccc2)NNC1=O)c1ccc(Cl)cc1Cl (stereo not drawn) : 15.8 µM (inconclusive)
COc1ccc(NC(=O)CCOc2ccccc2)cc1 : 22.4 µM (inconclusive)
Cc1ccc2[nH]c(SCc3nc(O)c4cnn(-c5ccccc5)c4n3)nc2c1 : 28.2 µM (inconclusive)

Shift focus to the following entry.
Asked: Lab request: please report AC50 under test system Cytochrome P450 2D6 (Homo sapiens, UniProt P10635) for "C=CCN1CC[C@]23c4c5ccc(O)c4O[C@@H]2/C(=N/NC(=O)c2ccccc2)CC[C@@]3(O)[C@H]1C5"
Given back: 15.8 µM (inconclusive)

====

The next entries give measured AC50 for Cytochrome P450 3A4 (Homo sapiens).

O=C(Nc1ccccc1)N1CCCC2(CCN(S(=O)(=O)c3ccccc3)CC2)C1 : 5.01 µM (inconclusive)
Cc1ccc(N(Cc2ccc([N+](=O)[O-])cc2)C(=O)c2ccco2)cc1 : 28.2 µM (inconclusive)
O=C(Nc1cccc(F)c1)N1CC[C@@]2(CCCN(C(=O)c3ccco3)C2)C1 : 10 µM (inconclusive)
CNC[C@H](O)c1ccc(OC(=O)C(C)(C)C)c(OC(=O)C(C)(C)C)c1 : 10 µM (inconclusive)
N#Cc1c(SCC(N)=O)nsc1SCc1ccccc1Cl : 10 µM (inconclusive)
CC(C)[C@@H]1[C@H]2CC[C@H](C2)[C@H]1N : 15.8 µM (inconclusive)
Cc1ccc2nc(Nc3ccccc3O)nc(-c3ccccc3)c2c1 : 35.5 µM (inconclusive)
CC[n+]1c(/C=C/Nc2ccccc2)oc2ccccc21 : 25.1 µM (inconclusive)

Asked: Lab request: please report AC50 under test system Cytochrome P450 3A4 (Homo sapiens) for "COC(=O)c1cc(-c2ccccc2)sc1NC(=O)CN1C(=O)c2ccccc2C1=O"
Given back: 31.6 µM (inconclusive)

Asked: Lab request: please report AC50 under test system Cytochrome P450 3A4 (Homo sapiens) for "O=C(CSC1=NCCN1)Nc1ccccc1"
Given back: 5.01 µM (inconclusive)

Asked: Lab request: please report AC50 under test system Cytochrome P450 3A4 (Homo sapiens) for CCc1ccc(NC(=O)C[S+]([O-])CC(=O)NCCCc2ccccc2)cc1 (stereo not drawn);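 further: CYP3A4 tested as one member of a cytochrome P450 panel screen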
Given back: 2.82 µM (inconclusive)

Asked: Lab request: please report AC50 under test system Cytochrome P450 3A4 (Homo sapiens) for "CN1CCN(c2ncc3nc(-c4cccs4)c(=O)n(CCC#N)c3n2)CC1"
Given back: 31.6 µM (inconclusive)

Asked: Lab request: please report AC50 under test system Cytochrome P450 3A4 (Homo sapiens) for "C=CCN1CC[C@]23c4c5ccc(O)c4O[C@@H]2/C(=N/NC(=O)c2ccccc2)CC[C@@]3(O)[C@H]1C5"
Given back: 3.98 µM (inconclusive)
